Reference source: the supplement of paper PMC10724198

tested on: Saccharomyces cerevisiae; test: protein stability index of tFT-peptide fusion in deletion strain of DAS1 (PSI (0-1 scale)); higher = more stable (slower turnover)
Recorded protein stability index for the following sequences

Residues: PDKRNHLIKLLR
Study Target: Saccharomyces cerevisiae
protein stability index: 0.643
--
Residues: CTPCGYKFRTNN
Study Target: Saccharomyces cerevisiae
protein stability index: 0.686
--
Residues: PDMRNHLIKLLN
Study Target: Saccharomyces cerevisiae
protein stability index: 0.757
--
Residues: LKDLRQKMNHQN
Study Target: Saccharomyces cerevisiae
protein stability index: 0.671
--
Residues: ARWRVGLFRGAS
Study Target: Saccharomyces cerevisiae
protein stability index: 0.665
--
Residues: CTSCGYKFRTNNS
Study Target: Saccharomyces cerevisiae
protein stability index: 0.7
--
Residues: PSHAASFWRVVG
Study Target: Saccharomyces cerevisiae
protein stability index: 0.697
--
Residues: FSYRWTFRYWVN
Study Target: Saccharomyces cerevisiae
protein stability index: 0.53
--
Residues: CTSTGYKFRTNN
Study Target: Saccharomyces cerevisiae
protein stability index: 0.681
--
Residues: LKILRQKMHHQN
Study Target: Saccharomyces cerevisiae
protein stability index: 0.706
--
Residues: ARWRVGLWRGLS
Study Target: Saccharomyces cerevisiae
protein stability index: 0.661
--
Residues: LKILRQKENHQN
Study Target: Saccharomyces cerevisiae
protein stability index: 0.681
--
Residues: FSMRWYFRYWVN
Study Target: Saccharomyces cerevisiae
protein stability index: 0.526
--
Residues: LKILRQKMNHRN
Study Target: Saccharomyces cerevisiae
protein stability index: 0.653
--
Residues: KKHKEGQKQKIN
Study Target: Saccharomyces cerevisiae
protein stability index: 0.581
--
Residues: VRCAVGGWRLVG
Study Target: Saccharomyces cerevisiae
protein stability index: 0.716
--
Residues: RLIQPLPVQFLI
Study Target: Saccharomyces cerevisiae
protein stability index: 0.537
--
Residues: CTSCGYKFRTNQ
Study Target: Saccharomyces cerevisiae
protein stability index: 0.691
--
Residues: PSLASSFWRVVG
Study Target: Saccharomyces cerevisiae
protein stability index: 0.696
--
Residues: LKILREKMNHQN
Study Target: Saccharomyces cerevisiae
protein stability index: 0.678
--
Residues: VDGAVGGWRLVG
Study Target: Saccharomyces cerevisiae
protein stability index: 0.685
--
Residues: CTECGYKFRTNN
Study Target: Saccharomyces cerevisiae
protein stability index: 0.678
--
Residues: LVVYMSCVACIN
Study Target: Saccharomyces cerevisiae
protein stability index: 0.0291
--
Residues: CDKRNHLIKLLN
Study Target: Saccharomyces cerevisiae
protein stability index: 0.589
--
Residues: FSMRWGFRYWVN
Study Target: Saccharomyces cerevisiae
protein stability index: 0.646
--
Residues: EDKRNHLIKLLN
Study Target: Saccharomyces cerevisiae
protein stability index: 0.599
--
Residues: CTSCGYKFDTNN
Study Target: Saccharomyces cerevisiae
protein stability index: 0.705
--
Residues: PSLAASIWRVVG
Study Target: Saccharomyces cerevisiae
protein stability index: 0.69
--
Residues: CTSKGYKFRTNN
Study Target: Saccharomyces cerevisiae
protein stability index: 0.667
--
Residues: CTSCGYKFRTNNW
Study Target: Saccharomyces cerevisiae
protein stability index: 0.716
--
Residues: FSMRWTFRYWVA
Study Target: Saccharomyces cerevisiae
protein stability index: 0.545
--
Residues: PDKRNHLIKLAN
Study Target: Saccharomyces cerevisiae
protein stability index: 0.579
--
Residues: CPSCGYKFRTNN
Study Target: Saccharomyces cerevisiae
protein stability index: 0.754
--
Residues: RLIQPLPLQFLN
Study Target: Saccharomyces cerevisiae
protein stability index: 0.619
--
Residues: LKILRQKMNHQNF
Study Target: Saccharomyces cerevisiae
protein stability index: 0.698
--
Residues: NSLAASFWRVVG
Study Target: Saccharomyces cerevisiae
protein stability index: 0.679
--
Residues: KKHKKGQKQKIA
Study Target: Saccharomyces cerevisiae
protein stability index: 0.597
--
Residues: RDIQPLPVQFLN
Study Target: Saccharomyces cerevisiae
protein stability index: 0.596
--
Residues: PELAASFWRVVG
Study Target: Saccharomyces cerevisiae
protein stability index: 0.694
--
Residues: KKHKKGFKQKIN
Study Target: Saccharomyces cerevisiae
protein stability index: 0.589
--
Residues: LVVYSSCVACIN
Study Target: Saccharomyces cerevisiae
protein stability index: 0.0458

* * *

test system: Saccharomyces cerevisiae; assay: protein stability index of tFT-peptide fusion (C-terminal peptide) (PSI (0-1 scale)); higher = more stable (slower turnover); conditions: genetic background: doa10 deletion; temperature: 30 C
Assign a class from recorded protein stability index; defined classes: A: < 0.2; B: ≥ 0.2 and < 0.3; C: ≥ 0.3

Residues: FSLRLFLVLALS
Class Label: A
//
Residues: HGVYSVLRFFFC
Class Label: C
//
Residues: VERKLMTIYIKI
Class Label: C
//
Residues: NYCLYFKLSRLS
Class Label: B
//
Residues: RKVWSLCWFVHL
Class Label: A
//
Residues: QPSSFDMLGLLL
Class Label: C
//
Residues: VFFVTSCWVFRG
Class Label: A
//
Residues: PPLTRVPLSISA
Class Label: B
//
Residues: GFPFLCSFLLAS
Class Label: B
//
Residues: LFFLSASFFFFF
Class Label: B
//
Residues: FPLFCRIHLLCS
Class Label: A
//
Residues: VCLWAIHLSGCW
Class Label: C
//
Residues: LLLRQVFSLGVF
Class Label: A
//
Residues: RGYATTALHWVS
Class Label: C
//
Residues: AGGVNWWSSWRV
Class Label: C

* * *

// reported protein stability index for each item listed
test system: Saccharomyces cerevisiae; assay: protein stability index of tFT-peptide fusion (C-terminal peptide) (PSI (0-1 scale)); higher = more stable (slower turnover); settings: genetic background: das1 deletion; temperature: 30 C
Readout Label: protein stability index

Residues: VTAGKAKFVLYN [SUN4 C-terminal 12 aa]
Study Target: Saccharomyces cerevisiae
Readout Label: protein stability index
Numeric Result: 0.665

Residues: KFRKDEDKSVKQ [TAN1 C-terminal 12 aa]
Study Target: Saccharomyces cerevisiae
Readout Label: protein stability index
Numeric Result: 0.685

Residues: YKTKYIWERLGK [SPC24 C-terminal 12 aa]
Study Target: Saccharomyces cerevisiae
Readout Label: protein stability index
Numeric Result: 0.69

Residues: LEEELTKIGLLP [GRX8 C-terminal 12 aa]
Study Target: Saccharomyces cerevisiae
Readout Label: protein stability index
Numeric Result: 0.706

Residues: LPAEILSNEPLK [YML119W C-terminal 12 aa]
Study Target: Saccharomyces cerevisiae
Readout Label: protein stability index
Numeric Result: 0.688

Residues: SGSVYIGSVFLI [YGR121W-A C-terminal 12 aa]
Study Target: Saccharomyces cerevisiae
Readout Label: protein stability index
Numeric Result: 0.692

* * *

Entries and their protein stability index values follow.
test system: Saccharomyces cerevisiae; assay: protein stability index of tFT-peptide fusion (C-terminal peptide) (PSI (0-1 scale)); higher = more stable (slower turnover); conditions: genetic background: wild type; temperature: 30 C
Readout Label: protein stability index

Residues: WYCRWWGVRGGH
Readout Label: protein stability index
Numeric Result: 0.672
//
Residues: GGTGGRRGVGHV
Readout Label: protein stability index
Numeric Result: 0.655
//
Residues: RAGFSEPCGSFS
Readout Label: protein stability index
Numeric Result: 0.668
//
Residues: YMVSLSFTLVRS
Readout Label: protein stability index
Numeric Result: 0.481
//
Residues: IACSVWYCCMVI
Readout Label: protein stability index
Numeric Result: 0.526
//
Residues: PLFPPASVVVLY
Readout Label: protein stability index
Numeric Result: 0.663
//
Residues: TPLHRIGGLHLK
Readout Label: protein stability index
Numeric Result: 0.653
//
Residues: KKYKKKKKRARY
Readout Label: protein stability index
Numeric Result: 0.698
//
Residues: VVVVCSWPVSLL
Readout Label: protein stability index
Numeric Result: 0.574
//
Residues: SHLSRSYPGLQL
Readout Label: protein stability index
Numeric Result: 0.742
//
Residues: SLSWIGLYCCGL
Readout Label: protein stability index
Numeric Result: 0.717
//
Residues: PHGASLCVPPSP
Readout Label: protein stability index
Numeric Result: 0.491
//
Residues: CAAVPLLASDVR
Readout Label: protein stability index
Numeric Result: 0.688
//
Residues: LGRAGMWTRRGL
Readout Label: protein stability index
Numeric Result: 0.663
//
Residues: VCRTLAPCIRWR
Readout Label: protein stability index
Numeric Result: 0.633
//
Residues: LVSQLLALCLSV
Readout Label: protein stability index
Numeric Result: 0.536
//
Residues: APRRAPSRRIRL
Readout Label: protein stability index
Numeric Result: 0.748
//
Residues: TPRQYVVSLSLC
Readout Label: protein stability index
Numeric Result: 0.19
//
Residues: GRRMRGAEKQKK
Readout Label: protein stability index
Numeric Result: 0.829
//
Residues: KKKKKKNKKKTQ
Readout Label: protein stability index
Numeric Result: 0.734
//
Residues: LEDGDRVYQVTI
Readout Label: protein stability index
Numeric Result: 0.655
//
Residues: QKKNSPIPTNKN
Readout Label: protein stability index
Numeric Result: 0.695
//
Residues: RHYGRSLRLIKT
Readout Label: protein stability index
Numeric Result: 0.59
//
Residues: GWALGRGRRVSG
Readout Label: protein stability index
Numeric Result: 0.691
//
Residues: RSPPPSLTPSPL
Readout Label: protein stability index
Numeric Result: 0.682
//
Residues: TPPLRPLLYSNA
Readout Label: protein stability index
Numeric Result: 0.53
//
Residues: LPHVALFLLPAL
Readout Label: protein stability index
Numeric Result: 0.638
//
Residues: GAGAQRGCRSGG
Readout Label: protein stability index
Numeric Result: 0.688
//
Residues: NPGLGLSCPSPP
Readout Label: protein stability index
Numeric Result: 0.701
//
Residues: ITALYVILTRRP
Readout Label: protein stability index
Numeric Result: 0.601
//
Residues: AVLGRRSQHASA
Readout Label: protein stability index
Numeric Result: 0.683
//
Residues: GGGGIREERVRE
Readout Label: protein stability index
Numeric Result: 0.766
//
Residues: RSWIDNKMKVNV
Readout Label: protein stability index
Numeric Result: 0.721
//
Residues: ASGASEVGACAG
Readout Label: protein stability index
Numeric Result: 0.685
//
Residues: KNNNREKLRQSM
Readout Label: protein stability index
Numeric Result: 0.623
//
Residues: SPLPPPPSRPPR
Readout Label: protein stability index
Numeric Result: 0.794
//
Residues: SRPPHPSPPRTF
Readout Label: protein stability index
Numeric Result: 0.675
//
Residues: PLSQLPAFSPVS
Readout Label: protein stability index
Numeric Result: 0.687
//
Residues: RSMLVSRQSIGV
Readout Label: protein stability index
Numeric Result: 0.695
//
Residues: TPTLPPPSPTFH
Readout Label: protein stability index
Numeric Result: 0.666
//
Residues: GPRTPPKPRQVP
Readout Label: protein stability index
Numeric Result: 0.616
